Tgt: T1, recombinant cyno monkey PCSK9 protein (cyno monkey, UniProt A8T666 31-692 (rhesus entry), limits assumed, biotin-labelled in the ELISA (Biotin labeling kit))
T1 construct: also called cyno PCSK9; Cyno Monkey PCSK9-His
Protocol: ELISA, biotin-cyno PCSK9 on streptavidin plate; antibody 0.000067 nM
Assay Endpoint: OD450 nm (OD450 nm)
Report as a plain number; the unit OD450 nm is understood.

Example entries begin here.
{"Binder": "76A1B11, chimeric anti-PCSK9 mAb purified from hybridoma (antibody, V domains shown, From Harbour H2L2 mice: human variable regions, rat constant regions) VH: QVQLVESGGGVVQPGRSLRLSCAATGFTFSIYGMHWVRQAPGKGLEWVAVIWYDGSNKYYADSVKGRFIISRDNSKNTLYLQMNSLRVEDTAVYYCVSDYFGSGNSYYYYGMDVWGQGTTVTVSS VL: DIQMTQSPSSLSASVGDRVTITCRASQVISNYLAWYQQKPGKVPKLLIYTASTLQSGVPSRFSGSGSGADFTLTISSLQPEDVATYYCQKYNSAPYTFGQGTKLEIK", "Unit String": "OD450 nm", "Measured Value": 0.21}
{"Binder": "74C10A8, chimeric anti-PCSK9 mAb purified from hybridoma (antibody, V domains shown, From Harbour H2L2 mice: human variable regions, rat constant regions) VH: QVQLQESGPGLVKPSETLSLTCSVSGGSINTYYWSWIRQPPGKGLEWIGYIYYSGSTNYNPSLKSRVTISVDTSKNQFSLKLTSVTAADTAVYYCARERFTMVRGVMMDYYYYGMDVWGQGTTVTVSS VL: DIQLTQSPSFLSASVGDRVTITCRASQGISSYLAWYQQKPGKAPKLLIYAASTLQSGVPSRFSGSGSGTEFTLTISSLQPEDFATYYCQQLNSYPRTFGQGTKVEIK", "Unit String": "OD450 nm", "Measured Value": 0.18}

Please find the next binder below.
Lookup: Form field: reported OD450 nm of 152G2F7, chimeric anti-PCSK9 mAb purified from hybridoma (antibody, V domains shown, From Harbour H2L2 mice: human variable regions, rat constant regions) VH: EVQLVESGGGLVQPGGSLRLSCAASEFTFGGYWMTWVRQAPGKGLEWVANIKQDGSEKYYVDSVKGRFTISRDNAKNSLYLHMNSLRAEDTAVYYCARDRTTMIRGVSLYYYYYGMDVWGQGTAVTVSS VL: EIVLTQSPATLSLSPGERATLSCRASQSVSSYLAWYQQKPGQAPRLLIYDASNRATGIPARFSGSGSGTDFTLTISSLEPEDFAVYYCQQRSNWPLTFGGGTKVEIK
Found: 0.27
